biological target: human estrogen receptor (Homo sapiens); construct: expressed in transfected cells; host or cells: HeLa; experiment: Transactivation assay, HeLa cells transfixed with human estrogen receptor-expression vector (HEGO) and Vit-TK-CAT reporter gene; assay type: cell-based
Sequence (P03372 whole entry): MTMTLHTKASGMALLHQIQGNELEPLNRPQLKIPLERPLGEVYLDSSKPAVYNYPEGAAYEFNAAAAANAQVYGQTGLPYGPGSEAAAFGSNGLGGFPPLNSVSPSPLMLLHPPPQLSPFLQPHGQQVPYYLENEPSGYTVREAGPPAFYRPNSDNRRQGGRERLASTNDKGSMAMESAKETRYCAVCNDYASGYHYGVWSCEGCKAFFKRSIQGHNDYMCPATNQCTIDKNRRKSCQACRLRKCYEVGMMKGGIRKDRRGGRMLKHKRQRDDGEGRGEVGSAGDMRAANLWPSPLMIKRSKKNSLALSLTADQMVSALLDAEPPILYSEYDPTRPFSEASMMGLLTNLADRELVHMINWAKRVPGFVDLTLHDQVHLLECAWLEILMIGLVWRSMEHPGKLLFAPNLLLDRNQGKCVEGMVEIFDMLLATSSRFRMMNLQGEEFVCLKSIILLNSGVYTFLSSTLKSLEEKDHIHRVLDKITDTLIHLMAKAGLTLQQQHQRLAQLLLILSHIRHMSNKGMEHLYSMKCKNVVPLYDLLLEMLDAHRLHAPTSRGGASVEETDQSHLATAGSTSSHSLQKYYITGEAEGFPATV
Listing: IC50 of selected compounds

COMPOUND	UNIT STRING	IC50
CN(CCCCC[C@@H]1Cc2cc(O)ccc2[C@H]2CC[C@]3(C)[C@@H](O)CC[C@H]3[C@H]12)CCCS(=O)(=O)CCCC(F)(F)C(F)(F)F	nM	0.3
C#C[C@]1(O)CC[C@H]2[C@@H]3[C@H](CCCCCN(C)CCCSCCCC(F)(F)C(F)(F)F)Cc4cc(O)ccc4[C@H]3CC[C@@]21C	nM	1
CN(CCCCC[C@@H]1Cc2cc(O)ccc2[C@H]2CC[C@@]3(C)[C@@H](CC[C@]3(C)O)[C@H]12)CCCSCCCC(F)(F)C(F)(F)F	nM	0.2
CN(CCCCC[C@@H]1Cc2cc(O)ccc2[C@H]2CC[C@]3(C)[C@@H](O)CC[C@H]3[C@H]12)CCC[S+]([O-])CCCC(F)(F)C(F)(F)F (stereo partly drawn)	nM	0.1
CN(CCCCC[C@@H]1Cc2cc(O)ccc2[C@H]2CC[C@]3(C)[C@@H](O)CC[C@H]3[C@H]12)CCS(=O)(=O)CCCC(F)(F)C(F)(F)F	nM	0.16
CN(CCCCC[C@@H]1Cc2cc(O)ccc2[C@H]2CC[C@]3(C)[C@@H](O)CC[C@H]3[C@H]12)CCCSCCCC(F)(F)C(F)(F)F	nM	0.3
